Data provenance: ChEMBL document CHEMBL6153050

# System: Quadruplex RNA
# test-parameters: time 10.0 min
measured-attribute: deltaTm1/2 (°C)

compound	tested-on	deltaTm1/2 (°C)
CC[C@@]1(O)C(=O)OCc2c1cc1n(c2=O)Cc2c-1nc1ccccc1c2CCNC(C)C [BELOTECAN]	Quadruplex RNA	14.7
CCc1cc2c(cc1CC)CC(NC[C@H](O)c1ccc(O)c3[nH]c(=O)ccc13)C2 [INDACATEROL]	Quadruplex RNA	4.9
Cn1nnc(-c2ccc(-c3ccc(N4C[C@H](CO)OC4=O)cc3F)cn2)n1	Quadruplex RNA	1
CONC(=O)Nc1ccc(-c2sc3c(c2CN(C)C)c(=O)n(-c2ccc(OC)nn2)c(=O)n3Cc2c(F)cccc2F)cc1	Quadruplex RNA	9.7

1. CCc1cc2c(cc1N1CCC(N3CCOCC3)CC1)C(C)(C)c1[nH]c3cc(C#N)ccc3c1C2=O
2. CN1CCCC(n2nc(Cc3ccc(Cl)cc3)c3ccccc3c2=O)CC1 (stereo not drawn) [AZELASTINE]
In: // pick min by deltaTm1/2: 1 , 2 Write down the label attached to your selection.
Out: 1

P. N[C@@H]1CCCCN(c2c(F)cc3c(=O)c(C(=O)O)cn(C4CC4)c3c2Cl)C1
Q. COc1ccc(-c2cc(=O)c3c(OC)c(OC)c(OC)cc3o2)cc1OC
R. CN(C)CCCOc1nn(Cc2ccccc2)c2ccccc12
S. Cc1cc2ncc(C(=O)NCC(C)(C)NCC(=O)N3CCC[C@H]3C#N)cn2n1
In: Returns the items ordered by deltaTm1/2, from maximum to minimum. Provide the ranking by listing each label in its place in the requested order.
Out: Q, R, P, S
(Q: 8.1 °C, R: 5.1 °C, P: 2.8 °C, S: 1.9 °C)
